Target: apo riboflavin binding protein from eggs (Gallus gallus, UniProt P02752)
Construct: obtained in homogeneous form from chicken egg white; from tissue; host or cells: chicken egg white
Sequence (P02752 18-238): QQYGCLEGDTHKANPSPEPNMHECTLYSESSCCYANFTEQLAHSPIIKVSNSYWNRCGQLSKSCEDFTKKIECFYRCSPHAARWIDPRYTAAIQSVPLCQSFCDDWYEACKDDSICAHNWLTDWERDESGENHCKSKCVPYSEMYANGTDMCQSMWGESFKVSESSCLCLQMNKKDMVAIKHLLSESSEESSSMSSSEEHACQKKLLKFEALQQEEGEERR
Assay: Titration of antibiotic with egg riboflavin binding protein; dissociation constant
Parameters: species or system chicken
measured.attribute: binding to the binding protein (in words)

molecule	study.target	endpoint.result
CN(C)CCCN1c2ccccc2Sc2ccc(Cl)cc21	apo riboflavin binding protein from eggs (Gallus gallus, UniProt P02752)	high affinity
CCN(CC)CCCC(C)Nc1c2ccc(Cl)cc2nc2ccc(OC)cc12 (stereo not shown)	apo riboflavin binding protein from eggs (Gallus gallus, UniProt P02752)	high affinity
